biological target: human AR (Homo sapiens, UniProt P10275); experiment: AR-CALUX assay, antiandrogenic (AR antagonistic) activity, U2OS-luc cells; format: cell-based; parameters: host or cells: human U2OS-luc (osteoblastic osteosarcoma) cells; settings: present study; molar relative potency to flutamide, IC25-based
Sequence (P10275 whole entry): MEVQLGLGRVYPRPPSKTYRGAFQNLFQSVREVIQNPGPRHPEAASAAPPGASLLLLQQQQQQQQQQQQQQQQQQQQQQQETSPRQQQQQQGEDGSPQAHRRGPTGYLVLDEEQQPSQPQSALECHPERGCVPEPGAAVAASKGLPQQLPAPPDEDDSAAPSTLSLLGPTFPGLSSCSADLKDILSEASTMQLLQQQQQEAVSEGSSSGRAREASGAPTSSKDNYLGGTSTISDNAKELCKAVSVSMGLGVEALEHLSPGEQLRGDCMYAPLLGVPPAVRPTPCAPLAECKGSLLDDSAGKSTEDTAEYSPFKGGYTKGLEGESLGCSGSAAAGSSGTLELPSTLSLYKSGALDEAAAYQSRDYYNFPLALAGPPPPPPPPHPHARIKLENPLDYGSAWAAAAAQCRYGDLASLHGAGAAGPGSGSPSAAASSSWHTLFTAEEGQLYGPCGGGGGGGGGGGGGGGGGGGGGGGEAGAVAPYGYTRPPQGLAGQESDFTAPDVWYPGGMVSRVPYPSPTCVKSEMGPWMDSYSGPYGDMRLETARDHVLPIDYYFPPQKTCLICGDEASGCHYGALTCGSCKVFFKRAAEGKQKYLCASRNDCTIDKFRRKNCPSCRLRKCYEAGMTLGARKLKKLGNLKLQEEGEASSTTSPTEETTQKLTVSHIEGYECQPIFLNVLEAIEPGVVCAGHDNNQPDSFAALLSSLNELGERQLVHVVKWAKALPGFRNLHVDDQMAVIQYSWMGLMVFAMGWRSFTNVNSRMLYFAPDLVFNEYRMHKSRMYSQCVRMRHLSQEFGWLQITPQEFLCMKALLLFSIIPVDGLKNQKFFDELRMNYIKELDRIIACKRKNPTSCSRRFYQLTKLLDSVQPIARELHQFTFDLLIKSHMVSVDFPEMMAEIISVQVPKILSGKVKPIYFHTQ
Would you please tag the item Y when its REPmol (IC25) is 0.6 or above, and N when it is below?

Compound	Classification
c1ccc2c(c1)ccc1ccc3ccccc3c12 [B[c]Phe, Benzo[c]phenanthrene]	Y
O=[N+]([O-])c1ccc2ccc3cccc4ccc1c2c34	Y
O=C1c2ccccc2C(=O)c2c1ccc1ccccc21 [BAQ, 7,12-benz[a]anthracenequinone]	N
O=C1c2ccccc2-c2ccc3ccccc3c21 [B[a]FO, 11H-Benzo[a]fluoren-11-one]	N
O=C1c2ccccc2-c2ccc([N+](=O)[O-])c3cccc1c23 [3-NBAO, 3-nitro-7H-benz[de]anthracen-7-one]	Y
O=C1C=Cc2cccc3cccc1c23	N
O=C1C(=O)c2ccccc2-c2ccccc21	Y

Where do the numbers come from? From paper PMC9819389.
